The following binders are shown together with reported Ki values.
- targetOrTestSystem: pKal catalytic domain Mutant 4 (human, UniProt P03952 391-638)
- Sequence (P03952 other isoform, or with tags, fused parts or gaps mutant): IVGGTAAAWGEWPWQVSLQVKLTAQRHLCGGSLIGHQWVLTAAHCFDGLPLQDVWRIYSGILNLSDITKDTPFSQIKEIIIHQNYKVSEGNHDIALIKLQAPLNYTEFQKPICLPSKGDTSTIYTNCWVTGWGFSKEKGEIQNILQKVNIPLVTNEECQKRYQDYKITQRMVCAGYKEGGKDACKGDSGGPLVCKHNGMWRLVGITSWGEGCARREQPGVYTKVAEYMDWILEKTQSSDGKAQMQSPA
- assayRemarks: Ki,app, enzyme inhibition
Report the figure in nM without appending any unit label.

Q: Quick one: Ki of X115-G04 (antibody, V domains shown, also called 559A-X115-G04; 559A-X0115-G04) VH: EVQLLESGGGLVQPGGSLRLSCAASGFTFSHYIMMWVRQAPGKGLEWVSGIYSSGGITVYADSVKGRFTISRDNSKNTLYLQMNSLRAEDTAVYYCAYRRTGVPRRDEFDIWGQGTMVTVSS VL: DIQMTQSPSTLSASVGDRVTITCRASQSISSWLAWYQQKPGKAPKLLIYKASTLESGVPSRFSGSGSGTEFTLTISSLQPDDFATYYCQQYNTYWTFGQGTKVEIK ?
Ans: 0.3

Q: Quick one: Ki of M35-G04 (Fab, V domains shown, also called 559A-M35-G04; 559A-M0035-G04) VH: EVQLLESGGGLVQPGGSLRLSCAASGFTFSYYHMSWVRQAPGKGLEWVSVISPSGGSTKYADSVKGRFTISRDNSKNTLYLQMNSLRAEDTAVYYCARGGSSDYAWGSYRRPYYFDYWGQGTLVTVSS VL: DIQMTQSPATLSLSPGERATLSCRASQSVSSYLAWYQQKPGQAPRLLIYDASNRATGIPARFSGSGSGTDFTLTISSLEPEDFAVYYCQQRSNWPRGFTFGPGTKVDIK ?
Ans: 0.8

Each recorded value in this set is attributed to patent US8816055.
